B1: Transcription factor SOX-4, residues 60 to 127; numbered along this chain, Q06945 (parent)
chain: KRPMNAFMVWSQIERRKIMEQSPDMHNAEISKRLGKRWKLLKDSDKIPFIREAERLRLKHMADYPDYK

variants of: B1; experiment: abundance fitness (aPCA) (normalised: wild type 0, dead -1); higher = more abundant; growth selection in yeast, the domain comes from the species named; conditions: Homo sapiens
Rule: abundance fitness under -0.07 gives Condition not met, otherwise Condition met.

mut=K39T classification="Condition not met"
mut=E52D classification="Condition not met"
mut=L58G classification="Condition met"
mut=K36N classification="Condition met"
mut=S31D classification="Condition met"
mut=S31Q classification="Condition met"
mut=R55S classification="Condition not met"
mut=H60Q classification="Condition met"
mut=M61K classification="Condition met"
mut=Q21Y classification="Condition not met"
mut=I50Q classification="Condition met"
mut=P65K classification="Condition met"
mut=M25Y classification="Condition not met"
mut=H60T classification="Condition met"
mut=E29G classification="Condition not met"
mut=R55M classification="Condition not met"
mut=K68T classification="Condition not met"
